# credit: patent US20260297129A1

Each entry below lists one item and its recorded remaining at 2 h, 1 µM value.
- Measurement notes: Protease stability in simulated intestinal fluids (FaSSIF) (Table 7)
- Assay type: in vitro ADME
- Condition parameters: fassif with pancreatin, 120 min, 37° C., read-out: Remaining percentage of peptide compound, FaSSIF 120 (min)
Numbered stars: 1 amine (or outer) side, 2 acyl side, 3 side chain; on linkers, the order of the positions; unused ones are H or OH. Bridge positions count the residues as written; N and C are the ends. Square brackets hold non-standard residues; d marks the D form. Peptide text beside a SMILES is read from it. * marks the point of attachment. Lys(Me,(CH2)4NMe(CH2)5CO) = CN(CCCCCC(=O)[*:3])CCCCN(C)CCCC[C@H](N[*:1])C(=O)[*:2]; Trp(7-Me) = Cc1cccc2c(C[C@H](N)C(=O)O)c[nH]c12; NH(2-(3-pyridyl)ethyl) = c1cncc(CCN*)c1; Sebacoyl = O=C(CCCCCCCCC(=O)[*:2])[*:1]; αMeLys(Me2) = CN(C)CCCC[C@](C)(N)C(=O)O; 2Nal = N[C@@H](Cc1ccc2ccccc2c1)C(=O)O; 3Pal = N[C@@H](Cc1cccnc1)C(=O)O; Lys(Me) = CNCCCC[C@H](N)C(=O)O; Thp = NC1(C(=O)O)CCOCC1; Me2NCH2CH2 = CN(C)CC*; Aib = CC(C)(N)C(=O)O; Sar = CNCC(=O)O
Give the value, in units of %, as a plain number.

Molecule	Readout kind	Reading unit	Endpoint result
Cc1cccc2c(C[C@@H]3NC(=O)CCCCCCCCC(=O)N(C)CCCC[C@@H](C(=O)NCC(=O)NCCc4cccnc4)NC(=O)C(C)(C)NC(=O)[C@H](Cc4ccc5ccccc5c4)NC(=O)[C@H](Cc4ccc(OCCN(C)C)cc4)NC(=O)C4(CCOCC4)NC(=O)[C@H](CC(C)C)NC3=O)c[nH]c12 [compound 17] ([Trp(7-Me)]L[Thp]Y(Me2NCH2CH2)[2Nal][Aib][Lys(Me)]G-{NH(2-(3-pyridyl)ethyl)}; linker N-7 via Sebacoyl)	remaining at 2 h, 1 µM	%	96

Query molecule follows.
Prompt: Return the recorded remaining at 2 h, 1 µM value; entry: CC(=O)NCCCC[C@@H]1NC(=O)[C@H](Cc2c[nH]c3c(C)cccc23)NC(=O)CCCCCN(C)CCCCN(C)CCCC[C@@H](C(=O)N[C@@H](CC(N)=O)C(=O)N[C@@H](Cc2cccnc2)C(=O)N(C)CC(N)=O)NC(=O)[C@](C)(CCCCN(C)C)NC(=O)[C@H](Cc2ccc3ccccc3c2)NC(=O)[C@H](Cc2ccc(OCCN(C)C)cc2)NC(=O)C2(CCOCC2)NC1=O [compound 34] ([Trp(7-Me)]K(Ac)[Thp]Y(Me2NCH2CH2)[2Nal][αMeLys(Me2)][Lys(Me,(CH2)4NMe(CH2)5CO)]N[3Pal][Sar]-NH2; lactam N-7)
Completion: 98
